src = ChEMBL document CHEMBL3784993

test system: 143B; assay: Selectivity index, ratio of IC50 for HDF cells to IC50 for human 143B cells; assay type: functional
We use 2 as the dividing line for Ratio IC50: on or above the line is 1, below is 0.

Molecule	Qualitative Label
O=c1[nH]cc(F)c(=O)[nH]1	0
CCNP(=O)(OC[C@H]1O[C@@H](n2cc(F)c(=O)[nH]c2=O)C[C@@H]1OC(=O)OC(C)(C)C)Oc1ccc(Cl)cc1 (stereo not given in full)	0
COC(=O)[C@H](C)NP(=O)(OC[C@H]1O[C@@H](n2cc(F)c(=O)[nH]c2=O)C[C@@H]1O)Oc1ccc(Cl)cc1 (stereo not given in full)	1

Can COC(=O)[C@H](C)NP(=O)(OC[C@H]1O[C@@H](n2cc(F)c(=O)[nH]c2=O)C[C@@H]1OC(=O)OC(C)(C)C)Oc1ccc(Cl)cc1 (stereo not given in full) be said to have Ratio IC50 at or above 2? 1

Is Ratio IC50 for C#CCNP(=O)(OC[C@H]1O[C@@H](n2cc(F)c(=O)[nH]c2=O)C[C@@H]1OC(=O)OC(C)(C)C)Oc1ccc(Cl)cc1 (stereo not given in full) at or above 2? 1
